Data provenance is PubChem BioAssay (NCI).

Give measured TGI for each item. Keep answers brief.
Test system: HCT-15 colon
procedureDetails: NCI tumour cell line growth inhibition, 48 h

Exam item: Answer with reported TGI of `O=C(/C=C\c1ccc(O)c(O)c1)c1ccccc1O`
Marked response: 19.1 µM

Exam item: Report TGI, nothing else, for this molecule: `COc1cc2c(c3oc(-c4ccc(O)cc4)c(O)c(=O)c13)CCC(C)(C)O2`
Marked response: 0.392 µM

Exam item: Answer with the recorded TGI of O=C1C2C3CC4C5C3C1C5C1(SCCS1)C42 (stereo unspecified) only.
Marked response: > 100 µM

Exam item: Check the records and state TGI for `CN1C(=O)C(c2c[nH]c3ccccc23)=C(c2c[nH]c3ccccc23)C1=O`
Marked response: > 25 µM

Exam item: Kindly indicate its recorded TGI. Item: CC[C@@H]1/C=C/C=C/C[C@H](C)[C@@H](O)[C@@H](C)C(=O)[C@H](C)[C@@H](O)[C@H](C)C(=O)[C@H](C)[C@@H](O)[C@H](C)/C=C/C(=O)O[C@H]2[C@@H](C)[C@@H](CC1)O[C@@]1(CC[C@@H](C)[C@@H](CC(C)O)O1)[C@@H]2C (stereo partly specified)
Marked response: > 25 µM

Exam item: Quick one: give measured TGI for `CCOc1ccc(/C=C2\N=C(c3ccccc3)OC2=O)cc1`
Marked response: > 100 µM

====

Test system: NCI-H522 lung
procedureDetails: NCI tumour cell line growth inhibition, 48 h; in the data active = GI50 below about 0.43 µM; inactive = the rest
Choose one outcome from this list and give only that: active, inactive

Exam item: Outcome? `CNC(=O)Oc1cc(C(C)C)ccc1Sc1ccc(C(C)C)cc1OC(=O)NC`
Marked response: inactive

Exam item: Which outcome was entered for the molecule `N#CCCNc1nonc1-c1nc2ccccc2n1CC(=O)c1ccc(N)cc1` in this test?
Marked response: active

Exam item: Called result for `CCN(Cc1ccc(OC)cc1)c1ccc(CO)c(Cl)c1`
Marked response: inactive

Exam item: Check the results log: what was the call for `Cn1cc(-c2ccc3nc(-c4ccc(CC(=O)Nc5cc(C(C)(C)C)no5)cc4)cnc3c2)cn1` ?
Marked response: active

Exam item: Could you check what this test reported for COc1cc(/C=C2\CC3C4CC=C5CC(OC(C)=O)CC[C@]5(C)C4CC[C@]3(C)C2=O)ccc1OCCN1CCCC1 (some centres undefined) ?
Marked response: inactive

Exam item: # fetch the recorded call for `O=C1C=C(Nc2ccccc2)c2ccccc2C1=O` here
Marked response: inactive

Exam item: Tell me the assay call for `COC(=O)[C@@H](C)C[C@H](Cc1ccccc1)NC(=O)c1nc([C@@H](C[C@H](C(C)C)N(C)C(=O)[C@@H](NC(=O)[C@H]2C[C@H](O)CCN2C)C(C)C)OC(C)=O)sc1C(C)C` please.
Marked response: active

Exam item: Can you look up the reported call for `O=S(=O)(NCCCNc1cc(-c2cn(-c3ccccc3)nc2-c2cccc(O)c2)ccn1)c1ccc(C(F)(F)F)cc1` for me?
Marked response: inactive

Exam item: Hi, sorry to bother you, what did the test record for `COc1cc2c(c3oc(-c4ccc(O)cc4)c(O)c(=O)c13)CCC(C)(C)O2` ?
Marked response: active

Exam item: Name the outcome recorded for `NS(=O)(=O)c1ccc(N(/C=C/C(=O)C(F)(F)F)CC(=O)c2ccc(F)cc2)cc1` in the assay.
Marked response: inactive

Exam item: Please state the recorded outcome for this molecule: `C/C(=C\C(=O)O[C@H]1[C@@H]2[C@H](C)CC[C@H]2[C@]2(C)O[C@@]1(C1CCCCC1)C[C@H]2OC(=O)CO)c1ccccc1`
Marked response: inactive

Exam item: Fill in: this test's call for `COc1ccc(-c2nc3sc(-c4cc(OC)c(OC)c(OC)c4)nn3c2/C=C2/C(=O)Nc3ccc(F)cc32)cc1` is ___
Marked response: inactive

Exam item: Test call for this molecule, please: `O=c1nc2n(-c3cccc(Cl)c3)c3ccc([N+](=O)[O-])cc3cc-2c(=O)[nH]1`
Marked response: inactive

Exam item: Recorded call for `CC(C)(C)CC(C)(C)c1ccc(OCCO)cc1` ?
Marked response: inactive

Exam item: State the result this test recorded for `ClC1=C(Cl)C(Cl)(C2(Cl)C(Cl)=C(Cl)C(Cl)=C2Cl)C(Cl)=C1Cl` .
Marked response: active

Exam item: Recorded test outcome, item `COC(=O)c1c2c(c(C)[n+]([O-])c1C)C(=O)C(NCc1ccc(OC)cc1)=CC2=O`
Marked response: inactive

Exam item: Tell me the assay call for `CN1C(=O)C(c2c[nH]c3ccccc23)=C(c2c[nH]c3ccccc23)C1=O` please.
Marked response: inactive

Exam item: // outcome(item) with item = CC(C)=CC[C@@H]1CC2(CC=C(C)C)C(=O)C(OC3(C(=O)c4ccccc4)C(=O)C4(CC=C(C)C)C[C@@H](CC=C(C)C)C(C)(C)C(CC=C(C)C)(C4=O)C3=O)(C(=O)c3ccccc3)C(=O)C(CC=C(C)C)(C2=O)C1(C)C (some centres undefined)
Marked response: inactive

Exam item: So what was the verdict on `O=C(NCc1cn(Cc2cccc(Oc3ccccc3)c2)nn1)c1cccnc1Nc1ccc(F)cc1` in this test?
Marked response: inactive
